- Test system: 242566-281-R-J2-PDC complex spheroid viability;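 note: spheroids exposed to compounds for 7 days before readout; 100% = DMSO vehicle control wells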
- assay.name: Anticancer human tumor 242566-281-R-J2-PDC patient-derived pancreatic carcinoma cell line growth inhibition [CLK]
- condition.description: second compound 0.0316 µM; first compound 0.1 µM; hits give low values
reported.property: viability, T/C (%)

INSERT INTO results (compound, tgt, test_value) VALUES
  ('Nc1ccn(C2OC(CO)C(O)C2(F)F)c(=O)n1 (stereo not given) + CNC(=O)c1ccc(Nc2nc(OC3CCCC3)c3c(-c4ccc5nc(C)oc5c4)c[nH]c3n2)c(OC)c1', '242566-281-R-J2-PDC complex spheroid viability', 42.9),
  ('Cn1ncnc1[C@H]1c2n[nH]c(=O)c3cc(F)cc(c23)N[C@@H]1c1ccc(F)cc1 + CN1CCN(c2cc(C(=O)Nc3cc4cc(-c5cnn(C)c5)ccc4cn3)ccn2)CC1', '242566-281-R-J2-PDC complex spheroid viability', 88),
  ('CC1(C)CCC(CN2CCN(c3ccc(C(=O)NS(=O)(=O)c4ccc(NCC5CCOCC5)c([N+](=O)[O-])c4)c(Oc4cnc5[nH]ccc5c4)c3)CC2)=C(c2ccc(Cl)cc2)C1 + CNC(=O)c1ccc(Nc2nc(OC3CCCC3)c3c(-c4ccc5nc(C)oc5c4)c[nH]c3n2)c(OC)c1', '242566-281-R-J2-PDC complex spheroid viability', 95.8),
  ('C=CC(=O)N1CCN(c2nc(=O)n(-c3c(C)ccnc3C(C)C)c3nc(-c4c(O)cccc4F)c(F)cc23)C(C)C1 (stereo not given) + CNC(=O)c1ccc(Nc2nc(OC3CCCC3)c3c(-c4ccc5nc(C)oc5c4)c[nH]c3n2)c(OC)c1', '242566-281-R-J2-PDC complex spheroid viability', 94),
  ('CC(Nc1ccc2c(c1)OCCn1cc(N3C(=O)OCC3C(F)F)nc1-2)C(N)=O (stereo not given) + CN1CCN(c2cc(C(=O)Nc3cc4cc(-c5cnn(C)c5)ccc4cn3)ccn2)CC1', '242566-281-R-J2-PDC complex spheroid viability', 85.9),
  ('CCc1c2c(nc3ccc(O)cc13)-c1cc3c(c(=O)n1C2)COC(=O)[C@]3(O)CC + CNC(=O)c1ccc(Nc2nc(OC3CCCC3)c3c(-c4ccc5nc(C)oc5c4)c[nH]c3n2)c(OC)c1', '242566-281-R-J2-PDC complex spheroid viability', 12.7),
  ('C=CC(=O)N1CCN(c2nc(=O)n(-c3c(C)ccnc3C(C)C)c3nc(-c4c(O)cccc4F)c(F)cc23)C(C)C1 (stereo not given) + CN1CCN(c2cc(C(=O)Nc3cc4cc(-c5cnn(C)c5)ccc4cn3)ccn2)CC1', '242566-281-R-J2-PDC complex spheroid viability', 105),
  ('C#Cc1c(F)ccc2cc(O)cc(-c3ncc4c(N5CC6CCC(C5)N6)nc(OCC56CCCN5CC(F)C6)nc4c3F)c12 (stereo not given) + CN1CCN(c2cc(C(=O)Nc3cc4cc(-c5cnn(C)c5)ccc4cn3)ccn2)CC1', '242566-281-R-J2-PDC complex spheroid viability', 47.5),
  ('Nc1ccccc1NC(=O)c1ccc(CNC(=O)OCc2cccnc2)cc1 + CNC(=O)c1ccc(Nc2nc(OC3CCCC3)c3c(-c4ccc5nc(C)oc5c4)c[nH]c3n2)c(OC)c1', '242566-281-R-J2-PDC complex spheroid viability', 101),
  ('C=C(F)C(=O)N1CCN(c2nc(OCC3CCCN3C)nc3c2CCN(c2cccc4cccc(Cl)c24)C3)CC1CC#N (stereo not given) + CN1CCN(c2cc(C(=O)Nc3cc4cc(-c5cnn(C)c5)ccc4cn3)ccn2)CC1', '242566-281-R-J2-PDC complex spheroid viability', 115),
  ('COC1C=CCC(C)C(C)S(=O)(=O)NC(=O)c2ccc3c(c2)N(CC2CCC21)CC1(CCCc2cc(Cl)ccc21)CO3 (stereo not given) + CNC(=O)c1ccc(Nc2nc(OC3CCCC3)c3c(-c4ccc5nc(C)oc5c4)c[nH]c3n2)c(OC)c1', '242566-281-R-J2-PDC complex spheroid viability', 91.9),
  ('CC(=O)O[C@H]1C(=O)[C@@]2(C)[C@H]([C@H](OC(=O)c3ccccc3)[C@]3(O)C[C@H](OC(=O)[C@H](O)[C@@H](NC(=O)c4ccccc4)c4ccccc4)C(C)=C1C3(C)C)[C@]1(OC(C)=O)CO[C@@H]1C[C@@H]2O + CN1CCN(c2cc(C(=O)Nc3cc4cc(-c5cnn(C)c5)ccc4cn3)ccn2)CC1', '242566-281-R-J2-PDC complex spheroid viability', 33.4),
  ('CC(Nc1ccc2c(c1)OCCn1cc(N3C(=O)OCC3C(F)F)nc1-2)C(N)=O (stereo not given) + CNC(=O)c1ccc(Nc2nc(OC3CCCC3)c3c(-c4ccc5nc(C)oc5c4)c[nH]c3n2)c(OC)c1', '242566-281-R-J2-PDC complex spheroid viability', 91.4),
  ('C#Cc1c(F)ccc2cc(O)cc(-c3ncc4c(N5CC6CCC(C5)N6)nc(OCC56CCCN5CC(F)C6)nc4c3F)c12 (stereo not given) + CNC(=O)c1ccc(Nc2nc(OC3CCCC3)c3c(-c4ccc5nc(C)oc5c4)c[nH]c3n2)c(OC)c1', '242566-281-R-J2-PDC complex spheroid viability', 89.4),
  ('O=c1[nH]cc(F)c(=O)[nH]1 + CN1CCN(c2cc(C(=O)Nc3cc4cc(-c5cnn(C)c5)ccc4cn3)ccn2)CC1', '242566-281-R-J2-PDC complex spheroid viability', 101),
  ('COc1ccc([C@@H](O)c2cc(-c3ncnc4cc(N5CCOCC5)ccc34)c(F)cc2Cl)nn1 + CN1CCN(c2cc(C(=O)Nc3cc4cc(-c5cnn(C)c5)ccc4cn3)ccn2)CC1', '242566-281-R-J2-PDC complex spheroid viability', 104),
  ('O=c1[nH]cc(F)c(=O)[nH]1 + CNC(=O)c1ccc(Nc2nc(OC3CCCC3)c3c(-c4ccc5nc(C)oc5c4)c[nH]c3n2)c(OC)c1', '242566-281-R-J2-PDC complex spheroid viability', 116),
  ('CC1COCCN1c1cc(C2(S(C)(=N)=O)CC2)nc(-c2ccnc3[nH]ccc23)n1 (stereo not given) + CN1CCN(c2cc(C(=O)Nc3cc4cc(-c5cnn(C)c5)ccc4cn3)ccn2)CC1', '242566-281-R-J2-PDC complex spheroid viability', 103),
  ('CC1COCCN1c1cc(C2(S(C)(=N)=O)CC2)nc(-c2ccnc3[nH]ccc23)n1 (stereo not given) + CNC(=O)c1ccc(Nc2nc(OC3CCCC3)c3c(-c4ccc5nc(C)oc5c4)c[nH]c3n2)c(OC)c1', '242566-281-R-J2-PDC complex spheroid viability', 105),
  ('CCCS(=O)(=O)Nc1ccc(F)c(C(=O)c2c[nH]c3ncc(-c4ccc(Cl)cc4)cc23)c1F + CN1CCN(c2cc(C(=O)Nc3cc4cc(-c5cnn(C)c5)ccc4cn3)ccn2)CC1', '242566-281-R-J2-PDC complex spheroid viability', 93.1);
